Test: Metabolic stability test (pooled human liver microsome)
Format: in vitro ADME
Settings: percentage of test compound remained after 30 minutes, pooled human liver microsome 0.5 mg protein/mL, 1 mmol/L NADPH, 37° C., compound 0.5 μM
Threshold rule: hLMS_ox(at 0.5 μM) % greater than or equal to 90% is y; below that, n.

Some entries whose results are on file:
>>> answer_label("COc1cc(N2CCc3nc(NC(=O)Nc4ccccc4C(=O)NC(C)CN(C)C)sc3C2)nc(OC)n1 (centres unmarked)")
"y"
>>> answer_label("Cc1cc(N2CCc3nc(NC(=O)Nc4ccccc4C(=O)N[C@@H](C)CO)sc3C2)nc(Cl)n1")
"y"
>>> answer_label("COc1cc(N2CCc3nc(NC(=O)Nc4ccccc4C(=O)NC(C)C)sc3C2)cc(OC)n1")
"n"

Q. Threshold query (hLMS_ox(at 0.5 μM) % >= 90%) on COc1cc(N2CCc3nc(NC(=O)Nc4cn(C)nc4C(=O)N[C@@H](C)CO)sc3C2)nc(OC)n1
A. y

Q. Now consider COc1cc(N2CCc3nc(NC(=O)Nc4cc(F)ccc4C(=O)NC(C)C)sc3C2)nc(OC)n1 .
A. n

----------
Biological target: hERG channel (IKr) (Homo sapiens)
Construct: expressed in transfected cells; host or cells: HEK293
Sequence (Q12809 whole entry): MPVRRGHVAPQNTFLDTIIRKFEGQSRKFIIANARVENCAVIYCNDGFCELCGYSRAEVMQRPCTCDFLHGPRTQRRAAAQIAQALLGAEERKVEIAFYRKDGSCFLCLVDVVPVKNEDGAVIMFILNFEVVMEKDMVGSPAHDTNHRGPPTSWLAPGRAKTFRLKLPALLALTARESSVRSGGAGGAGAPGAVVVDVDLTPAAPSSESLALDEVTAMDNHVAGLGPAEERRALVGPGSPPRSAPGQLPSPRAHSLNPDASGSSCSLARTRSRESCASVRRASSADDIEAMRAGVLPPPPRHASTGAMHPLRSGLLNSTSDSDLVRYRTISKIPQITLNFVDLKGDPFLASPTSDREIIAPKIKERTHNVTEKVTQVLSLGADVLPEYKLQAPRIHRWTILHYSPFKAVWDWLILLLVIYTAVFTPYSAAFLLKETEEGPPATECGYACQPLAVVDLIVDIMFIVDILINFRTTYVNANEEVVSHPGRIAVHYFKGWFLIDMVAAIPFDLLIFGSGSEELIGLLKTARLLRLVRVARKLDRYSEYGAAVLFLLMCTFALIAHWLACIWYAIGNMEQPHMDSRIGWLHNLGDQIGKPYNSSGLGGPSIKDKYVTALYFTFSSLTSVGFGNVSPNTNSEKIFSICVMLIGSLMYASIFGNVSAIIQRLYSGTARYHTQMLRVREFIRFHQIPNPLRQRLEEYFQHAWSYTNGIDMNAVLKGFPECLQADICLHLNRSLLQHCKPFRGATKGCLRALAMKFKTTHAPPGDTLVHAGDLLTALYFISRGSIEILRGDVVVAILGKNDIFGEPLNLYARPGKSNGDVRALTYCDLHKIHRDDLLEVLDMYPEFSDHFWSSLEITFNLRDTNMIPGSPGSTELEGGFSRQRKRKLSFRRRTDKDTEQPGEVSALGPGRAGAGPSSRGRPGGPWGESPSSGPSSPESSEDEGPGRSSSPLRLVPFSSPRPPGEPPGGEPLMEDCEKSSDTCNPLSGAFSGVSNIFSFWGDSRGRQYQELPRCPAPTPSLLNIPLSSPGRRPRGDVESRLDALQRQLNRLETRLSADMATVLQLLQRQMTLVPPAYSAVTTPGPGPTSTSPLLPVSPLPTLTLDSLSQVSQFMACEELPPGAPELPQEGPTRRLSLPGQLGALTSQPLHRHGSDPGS
Test: hERG test (whole-cell patch-clamp, IKr in HEK293 cells)
Assay type: cell-based
Conditions: human, HEK293 cells expressing hERG channel, pH 7.4, inhibition of maximum tail current (IKr), compound 10 μM
readout: inhibition at 10 min, 10 µM (%)
API: value field is a number in %; no unit string.

Q. Record COc1cc(N2CCc3nc(NC(=O)Nc4ccccc4C(=O)NC(C)(C)C(=O)O)sc3C2)nc(OC)n1 : what is its inhibition at 10 min, 10 µM with hERG channel (IKr) (Homo sapiens)?
A. 9.5

----------
Below, each entry is listed with its recorded hLMS_ox(at 0.5 μM) %.
Experiment: Metabolic stability test (pooled human liver microsome)
Format: in vitro ADME
Conditions: percentage of test compound remained after 30 minutes, pooled human liver microsome 0.5 mg protein/mL, 1 mmol/L NADPH, 37° C., compound 0.5 μM
Show the value, then the unit it is measured in.

Please review the following examples before continuing.
>>> measured_result("COc1cc(N2CCc3nc(NC(=O)Nc4ccccc4C(=O)NCCC#N)sc3C2)nc(OC)n1")
"93.6%"
>>> measured_result("Cc1cc(N2CCc3nc(NC(=O)Nc4ccccc4C(=O)NC(C)C)sc3C2)nc(C#N)n1")
"85.9%"
>>> measured_result("COc1cc(N2CCc3nc(NC(=O)Nc4ccccc4C(=O)NC(C)C#N)sc3C2)nc(OC)n1 (stereo not drawn)")
"85.6%"
>>> measured_result("COc1cc(N2CCc3nc(NC(=O)Nc4cn(C)nc4C(=O)NC(C)C)sc3C2)nc(OC)n1")
"83.9%"
>>> measured_result("COc1cc(N2CCc3nc(NC(=O)Nc4ccccc4OCCC(C)(C)C(=O)O)sc3C2)nc(OC)n1")
"89.3%"
>>> measured_result("COc1cc(N2CCc3nc(NC(=O)Nc4ccccc4C(=O)NN(C)C)sc3C2)nc(OC)n1")
"88.1%"

Q. For the compound CC(C)NC(=O)c1nn(C)cc1NC(=O)Nc1nc2c(s1)CN(c1cc[nH]c(=O)c1)CC2 , what hLMS_ox(at 0.5 μM) % is on record?
A. 98.1%

Q. Now consider COc1cc(N2CCc3nc(NC(=O)Nc4ccccc4C(=O)NC4CCOC4)sc3C2)nc(OC)n1 (stereo not drawn) .
A. 85.8%

Q. Now consider CC(CO)NC(=O)c1ccccc1NC(=O)Nc1nc2c(s1)CN(c1ccc(F)c(F)c1)CC2 (stereo not drawn) .
A. 89.8%

Q. Now consider COc1cc(N2CCc3nc(NC(=O)Nc4ccccc4C(=O)NC(C)(C)C(=O)O)sc3C2)nc(OC)n1 .
A. 87.2%

Q. Now consider COc1cc(C2(F)CCc3nc(NC(=O)Nc4ccccc4C(=O)NC(C)C)sc3C2)nc(OC)n1 (stereo not drawn) .
A. 89.1%

----------
Target: hERG channel (IKr) (Homo sapiens)
Construct: expressed in transfected cells; host or cells: HEK293
Assay: hERG test (whole-cell patch-clamp, IKr in HEK293 cells)
Type: cell-based
Conditions: human, HEK293 cells expressing hERG channel, pH 7.4, inhibition of maximum tail current (IKr), compound 1 μM
readout: inhibition at 10 min, 1 µM (%)
API: value field is a number in %; no unit string.

Please review the following examples before continuing.
>>> measured_result("COc1nc(Cl)cc(N2CCc3nc(NC(=O)Nc4cnccc4C(=O)NC(C)C)sc3C2)n1")
0.9
>>> measured_result("COc1cc(N2CCc3nc(NC(=O)Nc4ccccc4C(=O)NC(C)C#N)sc3C2)nc(OC)n1 (centres unmarked)")
3.8
>>> measured_result("COc1cc(N2CCc3nc(NC(=O)Nc4ccccc4C(=O)NC4CCCCC4O)sc3C2)nc(OC)n1 (centres unmarked)")
6.1
>>> measured_result("COc1cc(N2CCc3nc(NC(=O)Nc4ccccc4C(=O)NC(C)C)sc3C2)cnc1OC")
5.5
>>> measured_result("COc1cc(N2CCc3nc(NC(=O)Nc4ccccc4C(=O)NCC(C)O)sc3C2)nc(OC)n1 (centres unmarked)")
0.4
>>> measured_result("COc1cc(N2CCc3nc(NC(=O)Nc4cnccc4C(=O)NC(C)C)sc3C2)nc(OC)n1")
2
>>> measured_result("COc1cc(N2CCc3nc(NC(=O)Nc4ccccc4C(=O)N[C@@H](C)CO)sc3C2)nc(OC)n1")
9.6

# next molecule below
Q. For the molecule CCCCc1ccccc1NC(=O)Nc1nc2c(s1)CN(c1cc(OC)nc(OC)n1)CC2 , what inhibition at 10 min, 1 µM is on record?
A. 3

----------
Molecular target: PI3Kγ (Homo sapiens)
Sequence (P48736 whole entry, species assumed): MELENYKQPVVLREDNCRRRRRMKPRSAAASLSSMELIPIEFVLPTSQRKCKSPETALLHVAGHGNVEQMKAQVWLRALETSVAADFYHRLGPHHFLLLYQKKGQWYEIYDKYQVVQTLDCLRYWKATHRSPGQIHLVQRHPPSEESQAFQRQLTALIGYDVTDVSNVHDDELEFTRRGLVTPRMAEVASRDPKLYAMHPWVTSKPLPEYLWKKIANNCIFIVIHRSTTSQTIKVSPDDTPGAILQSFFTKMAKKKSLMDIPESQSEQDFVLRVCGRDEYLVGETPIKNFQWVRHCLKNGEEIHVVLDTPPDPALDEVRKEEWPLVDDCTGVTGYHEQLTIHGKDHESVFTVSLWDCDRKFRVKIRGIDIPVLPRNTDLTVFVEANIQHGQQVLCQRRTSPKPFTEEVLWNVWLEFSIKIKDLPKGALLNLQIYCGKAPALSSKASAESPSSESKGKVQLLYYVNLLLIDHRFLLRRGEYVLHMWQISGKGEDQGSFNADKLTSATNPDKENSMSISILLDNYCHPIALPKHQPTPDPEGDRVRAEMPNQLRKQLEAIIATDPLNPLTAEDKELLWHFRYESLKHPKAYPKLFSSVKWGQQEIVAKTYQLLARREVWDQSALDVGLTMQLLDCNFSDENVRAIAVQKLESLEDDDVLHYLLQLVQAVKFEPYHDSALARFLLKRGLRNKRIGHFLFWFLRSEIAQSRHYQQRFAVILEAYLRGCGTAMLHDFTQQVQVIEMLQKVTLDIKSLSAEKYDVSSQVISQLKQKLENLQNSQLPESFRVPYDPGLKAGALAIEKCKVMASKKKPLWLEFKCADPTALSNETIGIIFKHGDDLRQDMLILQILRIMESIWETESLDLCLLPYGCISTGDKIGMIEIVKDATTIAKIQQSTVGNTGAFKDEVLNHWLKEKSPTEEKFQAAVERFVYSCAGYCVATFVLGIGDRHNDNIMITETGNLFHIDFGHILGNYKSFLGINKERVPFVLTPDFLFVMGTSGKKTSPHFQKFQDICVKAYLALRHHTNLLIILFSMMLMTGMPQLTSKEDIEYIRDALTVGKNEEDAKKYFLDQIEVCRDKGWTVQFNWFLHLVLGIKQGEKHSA
Assay: PI3Kγ inhibitory activity (Ki value)
Type: biochemical
Conditions: read-out: PI3Kγ Ki value
Procedure: The PI3Kγ inhibitory activity (Ki value) of a compound was evaluated according to the following procedure: 5 μL of a compound solution containing 10% DMSO and […] of a compound was changed to 5 μL of a compound solution containing 10% DMSO and either 200, 64, 20, 6.4, 2, 0.64, or 0.20 μmol/L of the compound (optionally, this is diluted to a lower concentration). […] The Michaelis-Menten constant Km was then calculated by the Lineweaver-Burk plot method. […]
Below, each entry is listed with its recorded pKi.
Here pKi is given on a logarithmic scale as minus log10 of the concentration in mol/L.

>>> measured_result("COc1cncc(-c2ccc3nc(NC(=O)Nc4ccccc4OCCC(C)C)sc3n2)c1 [Compound I-225]")
7.82
>>> measured_result("Cc1nc(NC(=O)Nc2ccccc2C(=O)NC(C)C)sc1-c1ccc(S(C)(=O)=O)c(F)c1 [Compound I-127]")
7.80
>>> measured_result("Cc1nc(NC(=O)Nc2ccccc2OCCC(C)C)sc1-c1csc(S(=O)(=O)N(C)CCN(C)C)c1 [Compound I-192]")
6.32

Q. Record Cc1nc(NC(=O)Nc2ccccc2C(=O)NC(C)C)sc1-c1csc(S(=O)(=O)N2CCC(O)CC2)c1 [Compound I-146] : what is its pKi with PI3Kγ (Homo sapiens)?
A. 7.33

Q. Now consider COc1cc(N2CCc3nc(NC(=O)NC4=C(C(=O)NC(C)(C)C)CCC4)sc3C2)nc(OC)n1 [Compound I-28] .
A. 7.33

Q. Now consider COc1nc(Cl)cc(N2CCc3nc(NC(=O)Nc4cnccc4C(=O)NC(C)C)sc3C2)n1 [Compound I-91] .
A. 8.85

Q. Now consider COc1nc(Cl)cc(N2CCc3nc(NC(=O)Nc4ccccc4C(=O)NC4CCCOC4)sc3C2)n1 (stereo not shown) [Compound I-197] .
A. 8.64

----------
Target: UniProt P42338
Sequence (P42338 whole entry, species assumed): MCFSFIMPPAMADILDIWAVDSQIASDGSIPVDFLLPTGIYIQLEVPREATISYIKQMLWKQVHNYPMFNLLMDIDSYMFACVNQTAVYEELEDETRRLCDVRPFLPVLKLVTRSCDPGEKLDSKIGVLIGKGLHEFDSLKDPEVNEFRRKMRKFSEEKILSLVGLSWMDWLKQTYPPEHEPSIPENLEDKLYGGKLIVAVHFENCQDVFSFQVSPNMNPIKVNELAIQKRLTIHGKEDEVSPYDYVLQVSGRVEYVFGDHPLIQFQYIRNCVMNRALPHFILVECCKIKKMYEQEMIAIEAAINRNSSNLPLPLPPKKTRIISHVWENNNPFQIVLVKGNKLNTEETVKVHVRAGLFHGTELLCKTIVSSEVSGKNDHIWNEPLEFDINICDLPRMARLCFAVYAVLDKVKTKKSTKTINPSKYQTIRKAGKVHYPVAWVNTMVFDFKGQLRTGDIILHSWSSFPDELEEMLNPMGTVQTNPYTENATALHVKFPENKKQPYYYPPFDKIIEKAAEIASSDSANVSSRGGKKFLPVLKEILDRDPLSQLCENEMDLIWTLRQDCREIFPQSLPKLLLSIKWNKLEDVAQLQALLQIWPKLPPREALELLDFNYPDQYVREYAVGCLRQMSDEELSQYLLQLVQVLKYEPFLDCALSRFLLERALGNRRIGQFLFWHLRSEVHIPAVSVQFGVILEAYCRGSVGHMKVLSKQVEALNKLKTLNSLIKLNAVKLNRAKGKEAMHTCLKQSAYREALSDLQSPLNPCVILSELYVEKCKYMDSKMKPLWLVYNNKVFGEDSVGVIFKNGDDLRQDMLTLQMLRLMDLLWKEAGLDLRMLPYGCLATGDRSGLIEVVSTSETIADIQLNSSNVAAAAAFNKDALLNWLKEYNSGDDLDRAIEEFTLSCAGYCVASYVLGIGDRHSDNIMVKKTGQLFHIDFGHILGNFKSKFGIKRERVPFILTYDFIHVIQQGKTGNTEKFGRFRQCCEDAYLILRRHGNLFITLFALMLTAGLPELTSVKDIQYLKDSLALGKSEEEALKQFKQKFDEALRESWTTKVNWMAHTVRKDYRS
Sequence (P27986 whole entry partner, species assumed): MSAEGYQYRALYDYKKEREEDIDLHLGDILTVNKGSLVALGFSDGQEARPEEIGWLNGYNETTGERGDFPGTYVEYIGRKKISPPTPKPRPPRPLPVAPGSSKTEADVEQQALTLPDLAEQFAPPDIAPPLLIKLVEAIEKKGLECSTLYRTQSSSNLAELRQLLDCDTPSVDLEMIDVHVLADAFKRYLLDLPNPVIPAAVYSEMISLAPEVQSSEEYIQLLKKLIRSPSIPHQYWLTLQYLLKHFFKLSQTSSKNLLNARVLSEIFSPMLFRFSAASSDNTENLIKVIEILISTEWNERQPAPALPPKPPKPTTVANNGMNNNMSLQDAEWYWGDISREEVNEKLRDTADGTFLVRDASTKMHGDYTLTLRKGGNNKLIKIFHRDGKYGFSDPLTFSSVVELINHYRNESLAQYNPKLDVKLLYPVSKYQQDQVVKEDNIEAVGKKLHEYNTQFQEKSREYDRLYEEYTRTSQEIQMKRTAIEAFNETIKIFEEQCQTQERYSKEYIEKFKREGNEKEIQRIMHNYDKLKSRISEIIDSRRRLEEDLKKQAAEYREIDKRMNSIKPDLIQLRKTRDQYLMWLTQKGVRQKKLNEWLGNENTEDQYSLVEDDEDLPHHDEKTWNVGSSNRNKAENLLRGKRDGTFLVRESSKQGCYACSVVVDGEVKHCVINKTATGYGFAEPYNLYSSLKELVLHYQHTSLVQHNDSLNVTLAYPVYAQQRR
Assay: PI3Kβ inhibitory activity (Ki value)
Assay type: biochemical
Conditions: class symbols; read-out: PI3K β Ki
Below, each entry is listed with its recorded Ki.

>>> measured_result("CC(C)CCOc1ccccc1NC(=O)Nc1cn2nc(-c3cccc(S(C)(=O)=O)c3)ccc2n1 [Compound I-126]")
"≤ 3 µM"
>>> measured_result("CC(C)CCc1ccccc1NC(=O)Nc1cc2n(n1)CCN2c1ccc2c(c1)CCN(C)C2=O [Compound I-113]")
"> 3 µM"

Q. For the molecule Cc1nc(NC(=O)Nc2ccccc2C(=O)NC(C)C)sc1-c1ccc(S(C)(=O)=O)c(F)c1 [Compound I-127] , what Ki is on record?
A. ≤ 3 µM

Q. Now consider COc1nc(Cl)cc(N2CCc3nc(NC(=O)Nc4ccccc4C(=O)NC4CCCC4O)sc3C2)n1 (stereo not shown) [Compound I-174] .
A. ≤ 3 µM

Q. Now consider CC(C)NC(=O)c1ccccc1NC(=O)Nc1cn2nc(-c3cccc(S(C)(=O)=O)c3)ccc2n1 [Compound I-125] .
A. ≤ 0.3 µM

Q. Now consider COc1cc(N2CCc3nc(NC(=O)Nc4ccccc4C4=NC(C)(C)CO4)sc3C2)nc(OC)n1 [Compound I-14] .
A. > 3 µM

Q. Now consider COc1cc(C2(F)CCc3nc(NC(=O)Nc4ccccc4C(=O)NC(C)C)sc3C2)nc(OC)n1 (stereo not shown) [Compound I-83] .
A. > 3 µM
